These measurements were taken from patent US7544689B2.

TEST SYSTEM: cyclic AMP-dependent kinase (PKA) catalytic subunit (Homo sapiens, UniProt P17612)
EXPERIMENT NOTES: Kinase assay, PKA inhibition
Recorded measurements of IC50, one per entry

Field: example entries. Status: answers known.
{"COMPOUND": "CC[C@@H](Nc1nc(NCc2ccccn2)c2ncn(C(C)C)c2n1)[C@H](C)O", "PROPERTY MEASURED": "IC50", "MEASUREMENT": "> 200 µM"}
{"COMPOUND": "CCC(O)[C@@H](CC)Nc1nc(NCc2ccccn2)c2ncn(C(C)C)c2n1 (mixture of isomers)", "PROPERTY MEASURED": "IC50", "MEASUREMENT": "> 200 µM"}
{"COMPOUND": "CC[C@@H](Nc1nc(NCc2ccccn2)c2ncn(C(C)C)c2n1)C(O)C(C)C (mixture of isomers)", "PROPERTY MEASURED": "IC50", "MEASUREMENT": "> 200 µM"}
{"COMPOUND": "CC[C@H](Nc1nc(NCc2ccccn2)c2ncn(C(C)C)c2n1)C(O)C(C)(C)C (mixture of isomers)", "PROPERTY MEASURED": "IC50", "MEASUREMENT": "> 200 µM"}
{"COMPOUND": "CC[C@H](Nc1nc(NCc2ccccn2)c2ncn(C(C)C)c2n1)[C@@H](C)O", "PROPERTY MEASURED": "IC50", "MEASUREMENT": "> 200 µM"}
{"COMPOUND": "CC[C@@H](Nc1nc(NCc2ccccn2)c2ncn(C(C)C)c2n1)C(O)C(C)(C)C (mixture of isomers)", "PROPERTY MEASURED": "IC50", "MEASUREMENT": "> 200 µM"}
{"COMPOUND": "CC[C@H](Nc1nc(NCc2ccccn2)c2ncn(C(C)C)c2n1)C(O)C(C)C (mixture of isomers)", "PROPERTY MEASURED": "IC50", "MEASUREMENT": "> 200 µM"}
{"COMPOUND": "CCC(O)[C@H](CC)Nc1nc(NCc2ccccn2)c2ncn(C(C)C)c2n1 (mixture of isomers)", "PROPERTY MEASURED": "IC50", "MEASUREMENT": "> 200 µM"}

Which measured IC50 value corresponds to CC[C@@H](Nc1nc(NCc2ccccn2)c2ncn(C(C)C)c2n1)C(C)(C)O ? > 200 µM
